Each item that follows carries a reported protein stability index.
system: Saccharomyces cerevisiae; assay: protein stability index of tFT-peptide fusion (C-terminal peptide) (PSI (0-1 scale)); higher = more stable (slower turnover); settings: genetic background: das1 deletion; temperature: 30 C

>  <BIOPOLYMER_SEQUENCE>
MLAKIHKLNNKA [RFC4 C-terminal 12 aa]

>  <protein stability index>
0.703

$$$$
>  <BIOPOLYMER_SEQUENCE>
LHPFREPAKINI [YDR048C C-terminal 12 aa]

>  <protein stability index>
0.665

$$$$
>  <BIOPOLYMER_SEQUENCE>
DIIYFRAGAGKN [OLA1 C-terminal 12 aa]

>  <protein stability index>
0.691

$$$$
>  <BIOPOLYMER_SEQUENCE>
LGDSPSQGRSIS [YPK2 C-terminal 12 aa]

>  <protein stability index>
0.685

$$$$
>  <BIOPOLYMER_SEQUENCE>
KILGRYVVDTSK [ADH3 C-terminal 12 aa]

>  <protein stability index>
0.718

$$$$
>  <BIOPOLYMER_SEQUENCE>
GLKGLFPTSYCK [BZZ1 C-terminal 12 aa]

>  <protein stability index>
0.702

$$$$
>  <BIOPOLYMER_SEQUENCE>
LVYATELIGSGS [ICE2 C-terminal 12 aa]

>  <protein stability index>
0.706

$$$$
>  <BIOPOLYMER_SEQUENCE>
QTSGTFLHFSRP [YEL075W-A C-terminal 12 aa]

>  <protein stability index>
0.712

$$$$
>  <BIOPOLYMER_SEQUENCE>
ITLRLWEQRQAK [MAD1 C-terminal 12 aa]

>  <protein stability index>
0.754

$$$$
>  <BIOPOLYMER_SEQUENCE>
VNELVELMTQSA [SEC18 C-terminal 12 aa]

>  <protein stability index>
0.675

$$$$

---

// values below are reported protein stability index
system: Saccharomyces cerevisiae; assay: protein stability index of tFT-peptide fusion (C-terminal peptide) (PSI (0-1 scale)); higher = more stable (slower turnover); conditions: genetic background: wild type; temperature: 30 C
QUANTITY_MEASURED: protein stability index

>  <BIOPOLYMER_SEQUENCE>
SERNENKTGKVQ

>  <OBSERVED_RESULT>
0.747

$$$$
>  <BIOPOLYMER_SEQUENCE>
KNDRKLIKRILK

>  <OBSERVED_RESULT>
0.728

$$$$
>  <BIOPOLYMER_SEQUENCE>
RFARQSNTFSQS

>  <OBSERVED_RESULT>
0.659

$$$$
>  <BIOPOLYMER_SEQUENCE>
SVGGGRWRYGGR

>  <OBSERVED_RESULT>
0.662

$$$$
>  <BIOPOLYMER_SEQUENCE>
NKYTKSKKNNKE

>  <OBSERVED_RESULT>
0.761

$$$$
>  <BIOPOLYMER_SEQUENCE>
SKKLRRNKYRNG

>  <OBSERVED_RESULT>
0.687

$$$$
>  <BIOPOLYMER_SEQUENCE>
VSGPTPAPLSSL

>  <OBSERVED_RESULT>
0.695

$$$$
>  <BIOPOLYMER_SEQUENCE>
KKNKRMKVREKK

>  <OBSERVED_RESULT>
0.609

$$$$
>  <BIOPOLYMER_SEQUENCE>
GHYPCLPFLFPL

>  <OBSERVED_RESULT>
0.707

$$$$
>  <BIOPOLYMER_SEQUENCE>
RLPQSRLRTPPP

>  <OBSERVED_RESULT>
0.705

$$$$
>  <BIOPOLYMER_SEQUENCE>
APRCCPHLLRFR

>  <OBSERVED_RESULT>
0.655

$$$$
>  <BIOPOLYMER_SEQUENCE>
AALLSSPPLSPP

>  <OBSERVED_RESULT>
0.662

$$$$
>  <BIOPOLYMER_SEQUENCE>
SALPPSRLPRSP

>  <OBSERVED_RESULT>
0.713

$$$$
>  <BIOPOLYMER_SEQUENCE>
YKGYEIIGSVQG

>  <OBSERVED_RESULT>
0.72

$$$$
>  <BIOPOLYMER_SEQUENCE>
VYMWFVDSPGGS

>  <OBSERVED_RESULT>
0.682

$$$$
>  <BIOPOLYMER_SEQUENCE>
AKGRRRRGRWWG

>  <OBSERVED_RESULT>
0.682

$$$$
>  <BIOPOLYMER_SEQUENCE>
AGLCVSIGVGRG

>  <OBSERVED_RESULT>
0.652

$$$$
>  <BIOPOLYMER_SEQUENCE>
VFGRSFFRLFRG

>  <OBSERVED_RESULT>
0.644

$$$$
>  <BIOPOLYMER_SEQUENCE>
CVQVMTWAMLEC

>  <OBSERVED_RESULT>
0.618

$$$$
>  <BIOPOLYMER_SEQUENCE>
SLRSGFVSHFSP

>  <OBSERVED_RESULT>
0.689

$$$$
>  <BIOPOLYMER_SEQUENCE>
YPDYTSATGNIR

>  <OBSERVED_RESULT>
0.666

$$$$
>  <BIOPOLYMER_SEQUENCE>
KEGARGGEASRR

>  <OBSERVED_RESULT>
0.669

$$$$
>  <BIOPOLYMER_SEQUENCE>
KKGACTQILQSL

>  <OBSERVED_RESULT>
0.789

$$$$
>  <BIOPOLYMER_SEQUENCE>
WRSLVTVSTTAC

>  <OBSERVED_RESULT>
0.558

$$$$
>  <BIOPOLYMER_SEQUENCE>
LLPPPPPPPFSD

>  <OBSERVED_RESULT>
0.653

$$$$
>  <BIOPOLYMER_SEQUENCE>
GGGRRVRRGGGR

>  <OBSERVED_RESULT>
0.678

$$$$
>  <BIOPOLYMER_SEQUENCE>
FSSCFLVSPSLF

>  <OBSERVED_RESULT>
0.648

$$$$
>  <BIOPOLYMER_SEQUENCE>
LPGGVGCVGSPV

>  <OBSERVED_RESULT>
0.721

$$$$
>  <BIOPOLYMER_SEQUENCE>
SPAPPVPLHPPH

>  <OBSERVED_RESULT>
0.714

$$$$
>  <BIOPOLYMER_SEQUENCE>
YQLEDSNEKVEN

>  <OBSERVED_RESULT>
0.712

$$$$
>  <BIOPOLYMER_SEQUENCE>
LQFSTSMGVLMV

>  <OBSERVED_RESULT>
0.591

$$$$
>  <BIOPOLYMER_SEQUENCE>
LFHAPLFPPSSF

>  <OBSERVED_RESULT>
0.657

$$$$
>  <BIOPOLYMER_SEQUENCE>
SPPTPPTSICPS

>  <OBSERVED_RESULT>
0.705

$$$$
>  <BIOPOLYMER_SEQUENCE>
TPASSLFRCASR

>  <OBSERVED_RESULT>
0.656

$$$$
>  <BIOPOLYMER_SEQUENCE>
NKQNKKKKTNKK

>  <OBSERVED_RESULT>
0.679

$$$$
>  <BIOPOLYMER_SEQUENCE>
KKKKKKKGIILD

>  <OBSERVED_RESULT>
0.737

$$$$
>  <BIOPOLYMER_SEQUENCE>
QRGDDFHDTSPA

>  <OBSERVED_RESULT>
0.708

$$$$
>  <BIOPOLYMER_SEQUENCE>
KKEQIKINIKGK

>  <OBSERVED_RESULT>
0.693

$$$$
>  <BIOPOLYMER_SEQUENCE>
ISNPAVHNPAGG

>  <OBSERVED_RESULT>
0.641

$$$$
>  <BIOPOLYMER_SEQUENCE>
PLSFHPHLTSSP

>  <OBSERVED_RESULT>
0.671

$$$$
>  <BIOPOLYMER_SEQUENCE>
VFFCLFVLFLSG

>  <OBSERVED_RESULT>
0.423

$$$$
>  <BIOPOLYMER_SEQUENCE>
APARTTPRLPFA

>  <OBSERVED_RESULT>
0.724

$$$$
>  <BIOPOLYMER_SEQUENCE>
FLCRLILFSTPP

>  <OBSERVED_RESULT>
0.602

$$$$
>  <BIOPOLYMER_SEQUENCE>
SFGLRCPASRGS

>  <OBSERVED_RESULT>
0.648

$$$$
>  <BIOPOLYMER_SEQUENCE>
TFRVLAFFCRVV

>  <OBSERVED_RESULT>
0.367

$$$$
>  <BIOPOLYMER_SEQUENCE>
SKQKSKNYEAFK

>  <OBSERVED_RESULT>
0.721

$$$$
>  <BIOPOLYMER_SEQUENCE>
GMGHLSNVCLKT

>  <OBSERVED_RESULT>
0.597

$$$$
>  <BIOPOLYMER_SEQUENCE>
LQIKSFTSQRLA

>  <OBSERVED_RESULT>
0.158

$$$$
>  <BIOPOLYMER_SEQUENCE>
TKKKNTKKNNNT

>  <OBSERVED_RESULT>
0.67

$$$$
>  <BIOPOLYMER_SEQUENCE>
FMPFSLLALFVW

>  <OBSERVED_RESULT>
0.343

$$$$
>  <BIOPOLYMER_SEQUENCE>
TINVWFARTNPD

>  <OBSERVED_RESULT>
0.74

$$$$
>  <BIOPOLYMER_SEQUENCE>
PPPGPSRRPAAL

>  <OBSERVED_RESULT>
0.726

$$$$
>  <BIOPOLYMER_SEQUENCE>
KHNRISEKHQKS

>  <OBSERVED_RESULT>
0.643

$$$$
>  <BIOPOLYMER_SEQUENCE>
SFLLPTLVRLSH

>  <OBSERVED_RESULT>
0.65

$$$$
>  <BIOPOLYMER_SEQUENCE>
APSPRPSRPPPL

>  <OBSERVED_RESULT>
0.671

$$$$
>  <BIOPOLYMER_SEQUENCE>
IACSLSSFSPVW

>  <OBSERVED_RESULT>
0.687

$$$$
>  <BIOPOLYMER_SEQUENCE>
SVLVTASSFLYF

>  <OBSERVED_RESULT>
0.649

$$$$
>  <BIOPOLYMER_SEQUENCE>
RDAGPSKERNRR

>  <OBSERVED_RESULT>
0.675

$$$$
>  <BIOPOLYMER_SEQUENCE>
PPPPASPPHAPP

>  <OBSERVED_RESULT>
0.653

$$$$
>  <BIOPOLYMER_SEQUENCE>
GGWSLFCIVVVV

>  <OBSERVED_RESULT>
0.268

$$$$
>  <BIOPOLYMER_SEQUENCE>
GFEVAFSCSSWW

>  <OBSERVED_RESULT>
0.716

$$$$
>  <BIOPOLYMER_SEQUENCE>
LLILSVRPFVFV

>  <OBSERVED_RESULT>
0.43

$$$$
>  <BIOPOLYMER_SEQUENCE>
ETVLQVRRRVVR

>  <OBSERVED_RESULT>
0.655

$$$$
>  <BIOPOLYMER_SEQUENCE>
VPVIGRSCPFLP

>  <OBSERVED_RESULT>
0.658

$$$$
>  <BIOPOLYMER_SEQUENCE>
SLAPPVPPPPLH

>  <OBSERVED_RESULT>
0.67

$$$$
>  <BIOPOLYMER_SEQUENCE>
HSHKHTREDTVL

>  <OBSERVED_RESULT>
0.657

$$$$
>  <BIOPOLYMER_SEQUENCE>
SSPLPHPSFSPS

>  <OBSERVED_RESULT>
0.689

$$$$
>  <BIOPOLYMER_SEQUENCE>
LSNGVCSVSFLL

>  <OBSERVED_RESULT>
0.672

$$$$
>  <BIOPOLYMER_SEQUENCE>
RFPPPPPPPPLL

>  <OBSERVED_RESULT>
0.718

$$$$
>  <BIOPOLYMER_SEQUENCE>
PPPPPRPSPRPS

>  <OBSERVED_RESULT>
0.796

$$$$
>  <BIOPOLYMER_SEQUENCE>
EPTGEPKQKKEG

>  <OBSERVED_RESULT>
0.707

$$$$
>  <BIOPOLYMER_SEQUENCE>
RAGPPPPPSITL

>  <OBSERVED_RESULT>
0.83

$$$$
>  <BIOPOLYMER_SEQUENCE>
GRGGGVGLVVGG

>  <OBSERVED_RESULT>
0.683

$$$$
>  <BIOPOLYMER_SEQUENCE>
AAVGELLFTSLV

>  <OBSERVED_RESULT>
0.699

$$$$
>  <BIOPOLYMER_SEQUENCE>
SPPSFLSFFCAP

>  <OBSERVED_RESULT>
0.755

$$$$
>  <BIOPOLYMER_SEQUENCE>
DHNTRGYQTKSR

>  <OBSERVED_RESULT>
0.667

$$$$
>  <BIOPOLYMER_SEQUENCE>
VCPPPIGYHSYQ

>  <OBSERVED_RESULT>
0.667

$$$$
>  <BIOPOLYMER_SEQUENCE>
NHVAPNSPSPQD

>  <OBSERVED_RESULT>
0.731

$$$$
